This collection of values is drawn from ChEMBL document CHEMBL1121937.

# Tested on: Mus musculus
# testDescription: Effective dose required for analgesic potency in the hotplate procedure after sc injection into mice.
# Format: functional
metric: log10 ED50 (log10 of the value in mg/kg)

molecule | testedSystem | log10 ED50
CCC(=O)O[C@@]1(c2ccccc2)CCN(C)C(C)C1 (single isomer, unassigned; (+)) | Mus musculus | 0.74
CN1CC[C@]23c4c5ccc(O)c4O[C@H]2[C@@H](O)C=C[C@H]3[C@H]1C5 | Mus musculus | 0.08
CCOC(=O)C1(c2ccccc2)CCN(C)CC1 | Mus musculus | 0.11
CCC(=O)O[C@]1(c2ccccc2)CCN(C)[C@@H](C)C1 | Mus musculus | -0.28
CCC(=O)OC1(c2ccccc2)CCN(C)C(C)C1 (racemic) | Mus musculus | -0.28
